# Experimental Target: c-Met kinase (recombinant c-Met) (Homo sapiens)
# Construct: 0.27 nM recombinant c-Met
# Test Summary: In vitro kinase assay I (homogeneous time-resolved fluorescence tyrosine kinase assay)
# Protocol: The kinase activities of c-Met are measured using a modified version of the homogeneous-time-resolved tyrosine kinase assay described by Park et al. (1999, Anal. Biochem. 269:94-104). The procedure for determining the potency of a compound to inhibit c-Met kinase comprises the following steps: • 1. […] Read HTRF signals on a Victor reader (PerkinElmer) in HTRF mode after 60-min incubation at room temperature in the dark. • 6. […]
pIC50: −log10 of the molar value.
Assay Endpoint: pIC50

Consider the following illustrative entries.
> print(dat)
                                   compound                       experimental.target  meas.value
1  CC(c1cccc(-c2ncc(OCC(C)(C)O)cn2)c1)c1nn(-c2ccc(F)c(F)c2)ccc1=O (single isomer, unassigned) [Example 250]  c-Met kinase (recombinant c-Met) (Homo sapiens)      > 7.00
2  Cn1cc(-n2ccc(=O)c(Cc3cccc(-c4ncc(NCC5CCOC5)cn4)c3)n2)cn1 (racemic)  c-Met kinase (recombinant c-Met) (Homo sapiens)      > 7.00

For the next question, use this compound.
Provide pIC50, recorded with c-Met kinase (recombinant c-Met) (Homo sapiens), of CC(c1cccc(-c2ncc(-c3cnn(C)c3)cn2)c1)c1nn(-c2ccc(F)c(F)c2)ccc1=O (single isomer, unassigned) [Example 239]
> 7.00

* * *

# Experimental Target: c-Met kinase (recombinant c-Met) (Homo sapiens, UniProt P08581)
# Construct: 0.27 nM recombinant c-Met
# Sequence (P08581 25-1390): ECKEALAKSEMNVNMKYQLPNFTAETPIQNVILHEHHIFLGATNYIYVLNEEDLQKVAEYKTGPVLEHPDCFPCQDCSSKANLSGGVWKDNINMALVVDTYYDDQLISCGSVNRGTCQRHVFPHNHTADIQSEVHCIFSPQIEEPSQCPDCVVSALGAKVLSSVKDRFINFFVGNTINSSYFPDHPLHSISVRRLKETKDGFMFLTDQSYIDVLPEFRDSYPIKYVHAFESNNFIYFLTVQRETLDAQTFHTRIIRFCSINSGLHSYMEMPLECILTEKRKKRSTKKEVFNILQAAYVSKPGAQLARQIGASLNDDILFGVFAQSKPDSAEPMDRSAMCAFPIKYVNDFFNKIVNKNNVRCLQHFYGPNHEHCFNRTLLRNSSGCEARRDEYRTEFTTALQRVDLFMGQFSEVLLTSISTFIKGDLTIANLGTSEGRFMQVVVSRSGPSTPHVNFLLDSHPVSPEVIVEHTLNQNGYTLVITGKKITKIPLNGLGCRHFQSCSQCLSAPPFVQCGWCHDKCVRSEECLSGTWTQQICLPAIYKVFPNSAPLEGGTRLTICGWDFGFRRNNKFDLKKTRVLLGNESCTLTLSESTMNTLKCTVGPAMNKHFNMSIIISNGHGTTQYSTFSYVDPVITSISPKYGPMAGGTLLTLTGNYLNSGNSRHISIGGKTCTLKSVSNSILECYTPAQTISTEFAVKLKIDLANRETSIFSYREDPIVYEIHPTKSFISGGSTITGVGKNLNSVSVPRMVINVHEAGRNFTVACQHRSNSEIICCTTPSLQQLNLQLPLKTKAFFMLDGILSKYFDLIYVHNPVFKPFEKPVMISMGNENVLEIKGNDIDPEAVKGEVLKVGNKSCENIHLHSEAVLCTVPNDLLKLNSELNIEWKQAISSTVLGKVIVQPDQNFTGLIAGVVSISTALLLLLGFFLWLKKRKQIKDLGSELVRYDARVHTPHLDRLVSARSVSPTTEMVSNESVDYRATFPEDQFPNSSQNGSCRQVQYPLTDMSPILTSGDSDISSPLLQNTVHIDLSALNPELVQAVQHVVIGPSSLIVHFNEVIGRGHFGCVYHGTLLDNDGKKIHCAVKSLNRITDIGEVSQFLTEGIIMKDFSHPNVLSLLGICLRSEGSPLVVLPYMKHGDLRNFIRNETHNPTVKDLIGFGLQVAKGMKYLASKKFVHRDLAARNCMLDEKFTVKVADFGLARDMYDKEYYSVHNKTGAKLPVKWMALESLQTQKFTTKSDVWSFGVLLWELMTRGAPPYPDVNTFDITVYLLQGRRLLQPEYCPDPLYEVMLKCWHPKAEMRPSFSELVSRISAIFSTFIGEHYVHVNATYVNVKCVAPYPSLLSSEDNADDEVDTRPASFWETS
# Test Summary: In vitro kinase assay I (homogeneous time-resolved fluorescence tyrosine kinase assay)
pIC50: −log10 of the molar value.
Assay Endpoint: pIC50

> print(dat)
                                   molecule  assay.endpoint  meas.value
1  CN(C)C(=O)CCOC(=O)Nc1cccc(Cc2nn(-c3cnn(C)c3)ccc2=O)c1           pIC50      > 7.00
2  CC(C)COC(=O)Nc1cccc(Cc2nn(-c3ccn(C)n3)ccc2=O)c1           pIC50      > 7.00
3  CN1CCN(CCOC(=O)Nc2cccc(Cc3nn(-c4cc(F)cc(F)c4)ccc3=O)c2)CC1           pIC50      > 7.00

For the next question, use this molecule.
Read off the recorded pIC50 for Cn1cc(-n2ccc(=O)c(Cc3ccc4ncc(OCC5CCOC5)cc4c3)n2)cn1 (racemic)
> 7.00

* * *

# Experimental Target: c-Met kinase (recombinant c-Met) (Homo sapiens)
# Construct: 0.27 nM recombinant c-Met
# Test Summary: In vitro kinase assay I (homogeneous time-resolved fluorescence tyrosine kinase assay)
Assay Endpoint: IC50

> print(dat)
                                   molecule       meas.value
1  CCc1cnc(-c2cccc(C(C)c3nn(-c4ccc(F)c(F)c4)ccc3=O)c2)nc1 (single isomer, unassigned) [Example 230]   100 to 1000 nM
2  COCCC(=O)Nc1cnc(-c2cccc(Cc3nn(-c4cnn(C)c4)ccc3=O)c2)nc1         < 100 nM
3  CCn1cnc(-c2cccc(Cc3nn(-c4cc(F)cc(C#N)c4)ccc3=O)c2)n1         < 100 nM
4  Cc1cnc(-c2cccc(Cc3nn(-c4cnn(C)c4)ccc3=O)c2)[nH]1  1000 to 3000 nM

Read off the recorded IC50 for "CC(C)(O)COc1cnc(-c2cccc(Cc3nn(-c4ccc(F)c(F)c4)ccc3=O)c2)nc1"
< 100 nM

Read off the recorded IC50 for "CC(C)COC(=O)Nc1cccc(Cc2nn(-c3cnn(CCCN(C)C)c3)ccc2=O)c1"
100 to 1000 nM

Read off the recorded IC50 for "Cn1cc(-n2ccc(=O)c(Cc3cccc(-c4ncc(-c5cnc(N)nc5)cn4)c3)n2)cn1"
< 100 nM

Read off the recorded IC50 for C[C@@H](O)[C@@H](C)Oc1cnc(-c2cccc(Cc3nn(-c4cnn(C)c4)ccc3=O)c2)nc1 (single isomer, unassigned)
< 100 nM

Read off the recorded IC50 for COc1cnc(-c2cccc(C(C)c3nn(-c4cnn(C)c4)ccc3=O)c2)nc1 (single isomer, unassigned) [Example 204]
< 100 nM

Read off the recorded IC50 for "COC(=O)c1cnc(-c2cccc(Cc3nn(-c4cnn(C)c4)ccc3=O)c2)nc1"
< 100 nM

Read off the recorded IC50 for "CCOC(=O)Nc1cccc(Cc2nn(-c3cccc(Br)c3)ccc2=O)c1"
< 100 nM

Read off the recorded IC50 for Cn1cc(-n2ccc(=O)c(Cc3cccc(NC(=O)OCC4CCO4)c3)n2)cn1 (racemic)
< 100 nM

Read off the recorded IC50 for Cn1cc(-n2ccc(=O)c(Cc3cccc(-c4ncn(CCC5CCCO5)n4)c3)n2)cn1 (racemic)
< 100 nM

Read off the recorded IC50 for "Cn1cc(-n2ccc(=O)c(Cc3cccc(-c4ncc(C(=O)NCCN5CCOCC5)cn4)c3)n2)cn1"
< 100 nM

Read off the recorded IC50 for CCCC(c1cccc(-c2ncc(OCC)cn2)c1)c1nn(-c2cnn(C)c2)ccc1=O (single isomer, unassigned) [Example 208]
< 100 nM

Taken from patent US20120264735A1.
